Test system: Hs-578T
Test: NCI tumour cell line growth inhibition, 48 h
Activity calls are given as the source filed them. Rule as the data show it: active = GI50 up to about 1.1 µM and inactive = higher.
Outcome codes: active, inactive

{"Cpd smiles": "CC(=O)c1c(SCCN2CCCC2)n(-c2ccccc2)c(=S)n(-c2ccccc2)c1=O", "Label": "inactive"}
{"Cpd smiles": "O=c1[nH]c(=O)n(COCCO)cc1-c1ccccc1", "Label": "inactive"}
{"Cpd smiles": "O=C(NCCCN(CCCCN(CCCNC(=O)c1cc(S(=O)(=O)O)cc(O)c1O)C(=O)c1cc(S(=O)(=O)O)cc(O)c1O)C(=O)c1cc(S(=O)(=O)O)cc(O)c1O)c1cc(S(=O)(=O)O)cc(O)c1O", "Label": "inactive"}
{"Cpd smiles": "COc1ccc2c(c1)c1c3c(ccc4ncn2c43)N(CCN(C)C)CCN=1", "Label": "active"}

* * *

System: UACC-62
Experiment: NCI tumour cell line growth inhibition, 48 h
Activity calls are given as the source filed them. Cut-off read from the data, not from the text of the source: active = GI50 up to about 1.1 µM and inactive = higher.
Outcome codes: TRUE = active, FALSE = inactive

{"Compound": "O=C(CC(C(=O)c1cccs1)c1ccsc1)c1cccs1 (stereo not given)", "Label": "FALSE"}
{"Compound": "CC1=C(c2ccccc2)CON(c2ccccc2)C1", "Label": "FALSE"}
{"Compound": "O=C(/C=C/c1ccc(-c2ccccc2)cc1)NCc1ccc(C(=O)NCCc2ccccc2)cc1", "Label": "FALSE"}
{"Compound": "CN(CCCNC(=O)c1cn(C)c2c1ccc1cc(Cl)ccc12)CCCNC(=O)c1cn(C)c2c1ccc1cc(Cl)ccc12", "Label": "FALSE"}
{"Compound": "COc1cccc2c1C(=O)c1c(O)c3c(c(O)c1C2=O)C[C@@](O)(C(=O)CO)CC3OC1CC(N)C(OC2CCCCO2)C(C)O1 (stereo not given in full)", "Label": "TRUE"}
{"Compound": "O=C1CC2Sc3ccccc3N=C2N1c1ccc(Cl)cc1Cl (stereo not given)", "Label": "FALSE"}
{"Compound": "CNC(=O)NCCN1CC2CCC(CC2)C1", "Label": "FALSE"}
{"Compound": "Oc1cc(-c2ccc3ccccc3c2)nc2ncccc12", "Label": "FALSE"}
{"Compound": "CCOC(=O)C[C@@H](C)[C@]1(C(=O)OC)CCCC1=O", "Label": "FALSE"}
{"Compound": "C1CCC(N=C2N(C3CCCCC3)C(=NC3CCCCC3)N2C2CCCCC2)CC1", "Label": "FALSE"}
{"Compound": "CCOC(=O)CC(=O)C(=O)NN=C1NCCN1", "Label": "FALSE"}
{"Compound": "COc1cc(/C=C/c2csnn2)cc(OC)c1OC", "Label": "FALSE"}
{"Compound": "CCOC(=O)C(CCN1CCC2(CC1)C(=O)N(C)CN2c1ccccc1)C(=O)OCC", "Label": "FALSE"}
{"Compound": "CC(C)(C)C(=O)ON1N=NC2C3CC(OCc4ccccc4)(OCc4ccccc4)C(O3)C21 (stereo not given)", "Label": "FALSE"}
{"Compound": "CCCCCCCCCCCCCOCCOCCOCCCCC(O)CCCCCCCCCC1=C[C@H](C)OC1=O (stereo not given in full)", "Label": "FALSE"}
{"Compound": "Cc1ccc(S(=O)(=O)ON2C(=O)c3cccc4cc([N+](=O)[O-])cc(c34)C2=O)cc1", "Label": "FALSE"}
{"Compound": "C=C(C)[C@@H](O)[C@H](O)C[C@H](C)C1CC[C@]2(C)C1=CC[C@@H]1[C@@]3(C)CC[C@@H](OC(C)=O)C(C)(C)[C@@H]3C[C@@H](OC3OC(COC(C)=O)C(O)C(O)C3O)[C@]12C (stereo not given in full)", "Label": "FALSE"}
{"Compound": "Cc1ccc2c(c1)C(=O)c1[nH]c3ccc(F)cc3c1CO2", "Label": "FALSE"}
{"Compound": "Cc1ccc2[nH]c3c(C)c4ccncc4c(C)c3c2c1", "Label": "FALSE"}
{"Compound": "CN1N=C2c3ccccc3CC[C@H]2C1c1cccc(O)c1 (stereo not given in full)", "Label": "FALSE"}

Data credit: ChEMBL document CHEMBL1201862
